Tested on: HT29 colon
MEASUREMENT PROTOCOL: NCI tumour cell line growth inhibition, 48 h
Overview of reported TGI across a group of molecules:

[
  {
    "MOLECULE": "COC(=O)C1CCc2nnc(-c3ccccc3)n21 (stereo not given)",
    "TGI": "> 100 µM"
  }
]

Exercise: Would you kindly share the measured TGI for `NC(=O)c1ccc(Cl)c([N+](=O)[O-])c1` ?
Solution: > 100 µM

Exercise: What do you get for `c1cncc(CSc2nc3ccccc3nc2-c2cccs2)c1` ?
Solution: > 100 µM

Exercise: Please answer likewise for `CCn1c2ccccc2c2cc(C(=O)c3ccc(C)c4ccccc34)ccc21`
Solution: 0.729 µM

Exercise: // repeat for COc1ccc(C2C=C(c3ccc(C)cc3)N(c3ccc(OC)cc3[N+](=O)[O-])C3C(=O)OC(=O)C23)c(OC)c1 (stereo not given) and report
Solution: 86.4 µM

Exercise: Also `O=C(Nc1nn(C(=O)c2cccnc2)c(=O)s1)c1ccc(Cl)cc1` , if possible.
Solution: > 100 µM

###

Tested on: HT29 colon
MEASUREMENT PROTOCOL: NCI tumour cell line growth inhibition, 48 h
Some compounds, each annotated with its measured TGI.

[
  {
    "COMPOUND": "CSc1nc(Cl)c2c(n1)Sc1nc3ccccc3n1C2O (stereo not given)",
    "TGI": "25.4 µM"
  }
]

Exercise: I have this compound here, `C=CN(C=C)C(=O)Cn1cc(-c2ccccc2)nn1` , and I need its recorded TGI.
Solution: > 100 µM

Exercise: And the next one, `Oc1ccccc1/C=N/N1C(=S)N(C23CC4CC(CC(C4)C2)C3)C(=Nc2ccccc2)C1=Nc1ccccc1` ?
Solution: > 100 µM

Exercise: Field entry: `CCOC(=O)[C@@H](Cc1ccc(CCl)cc1)NC(C)=O`
Solution: > 100 µM

Exercise: Another compound to look at: `CCN(CC)CCCCNc1c2ccc(Cl)cc2nc2ccc(OC)cc12`
Solution: 1.27 µM

Exercise: Again, but for `CC[C@H](NC(=O)OC(C)(C)C)C(=O)NCP(=O)(OCc1ccc([N+](=O)[O-])cc1)OCc1ccc([N+](=O)[O-])cc1`
Solution: 51.8 µM

Exercise: One more compound: `CO[P@@]1(=O)O[C@@H](c2ccccc2)[C@H](O)[C@]1(O)c1ccccc1`
Solution: > 100 µM

Exercise: Try this compound too: `CC(=O)Oc1ccc2c(c1)C(=O)c1nc(C)c(C)nc1C2=O`
Solution: > 91.7 µM

Exercise: Similarly, `COc1ccc(S(=O)(=O)N(C(C)=O)c2ccccc2/C=C/c2cc[n+]([O-])cc2)cc1` ?
Solution: > 10 µM

Exercise: And what about the compound C=C1[C@@H]2CCC3[C@]4(C)C(CC[C@@]5(C)C(=O)O[C@H](O)[C@@H]45)[C@H](O)[C@]3(C2)[C@H]1OC1OC(CO)C(O)C(O)C1O (stereo not given in full) ?
Solution: > 50 µM

###

This section presents compounds with their documented TGI values.
Test system: SF-268 CNS
MEASUREMENT PROTOCOL: NCI tumour cell line growth inhibition, 48 h

A selection of reference data follows.
[
  {
    "COMPOUND": "COc1ccc(C2C=C(c3ccc(C)cc3)N(c3ccc(OC)cc3[N+](=O)[O-])C3C(=O)OC(=O)C23)c(OC)c1 (stereo not drawn)",
    "TGI": "> 100 µM"
  },
  {
    "COMPOUND": "O=C(C(=C(I)I)c1ccccc1)c1ccccc1",
    "TGI": "> 100 µM"
  }
]

Turning to the following compound.
Exercise: Provide the documented TGI with SF-268 CNS as the system for `CC(C)=CCC[C@@H](C)C1=C(Nc2ccccc2F)C(O)=C(C)C(=O)C1=O`
Solution: > 100 µM
